- System name: T1, FXa (Homo sapiens, UniProt P00742)
- T1 construct: FXa, factor Xa
- T1 sequence (P00742 235-488 limits assumed): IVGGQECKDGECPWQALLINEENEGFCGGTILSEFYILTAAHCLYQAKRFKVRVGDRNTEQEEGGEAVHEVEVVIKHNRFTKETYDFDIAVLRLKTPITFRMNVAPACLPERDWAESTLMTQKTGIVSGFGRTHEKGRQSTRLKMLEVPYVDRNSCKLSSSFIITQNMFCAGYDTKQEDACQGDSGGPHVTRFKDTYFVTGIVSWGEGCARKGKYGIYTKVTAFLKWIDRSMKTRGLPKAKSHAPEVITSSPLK
- T1 sequence (P00742 41-179 limits assumed): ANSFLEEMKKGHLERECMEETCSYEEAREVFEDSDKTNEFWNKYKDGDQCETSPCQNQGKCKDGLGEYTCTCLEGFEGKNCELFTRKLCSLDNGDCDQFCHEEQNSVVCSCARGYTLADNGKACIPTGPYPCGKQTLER
- Experimental details: Protease inhibition assay, factor Xa
- Type: biochemical
- Condition label: 1 nM FXa
Readout type: Ki

Problem: What value of measured Ki is listed for KD1-L17R-KT (designed binder, also called KD1SM; single mutant) MGSSHHHHHHSSGHIDDDDKNAEICLLPLDYGPCRARLLRYYYDRYTQSCRQFLYGGCEGNANNFYTWEACDDACWRIEK ?
Result: > 3000 nM
